These entries and their values trace back to paper PMC9482650.

- measurement target: GORASP2, Q9H8Y8
- test description: holdup assay
- Set-up: key: below the threshold = too weak to quantify, mostly under pKd 3.1 to 4
- measurement parameters: plain residues with an end cap or a label only (N-terminal biotin on a linker: ado-ado)

[
  {
    "binder": "CLREWCDAFL [BANF1, O75531]",
    "pKd": "below the threshold"
  },
  {
    "binder": "TASPAKETSF [SLC2A7, Q6PXP3]",
    "pKd": "below the threshold"
  },
  {
    "binder": "TSSMRGMDAV [RSRC2, Q7L4I2]",
    "pKd": "below the threshold"
  },
  {
    "binder": "QMNQTLPVQV [EPHB3, P54753]",
    "pKd": 3.81
  }
]
